- procedure.details: chemical genetic growth profiling, strain panel (AID 1159580);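 also: tested at 20 µM; growth read once vehicle control cultures reached saturation at 30 °C; 1 = growth at the plate median or of vehicle wells; lower values mean less growth of the strain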
- conditions: S. cerevisiae deletion strains, growth OD, locus YIR030C, strain dcg1, active compounds read low
Out of some 5,500 compounds screened, about 2,000 (36%) were called active. About 18% were inconclusive and are not listed. The list shows a part of the results.
experimental.endpoint: normalized growth
// keep it numeric: no unit symbol after the value

Enquiry: Please indicate normalized growth recorded for NC1(C(=O)O)CCC1
Return: 0.988

Enquiry: Tell me normalized growth reported for COc1ccc2c(c1)OCC(Cc1ccc(OC)c(O)c1)C2=O (stereo not drawn)
Return: 0.942

Enquiry: Kindly indicate its recorded normalized growth. Item: c1ccc2c(CC3=NCCN3)cccc2c1
Return: 1.03

Enquiry: Tell us which normalized growth value is on record for CC(=O)O[C@@H]1CC2C(C)(C)C(=O)C3OC3[C@]2(C)C2CC[C@@]3(C)[C@H](c4ccoc4)OC(=O)C4OC43[C@@]21C (stereo partly drawn)
Return: 0.998

Enquiry: Give reported normalized growth value for CC(=O)O[C@H]1CC[C@@]2(C)C(C[C@@H](OC(C)=O)[C@]3(C)C2CC[C@@]2(C)[C@H](c4ccoc4)OC(=O)[C@H]4O[C@]423)C1(C)C (stereo partly drawn)
Return: 1

Enquiry: Provide only the value of recorded normalized growth for Clc1ccc(C(c2ccccc2Cl)C(Cl)Cl)cc1 (stereo not drawn)
Return: 0.99

Enquiry: Query normalized growth for CN=C(N)NCCCC(N)C(=O)O (stereo not drawn)
Return: 0.997

Enquiry: Determine from records and report normalized growth for NCCCNCCSP(=O)(O)O
Return: 0.998

Enquiry: Hello, please tell me recorded normalized growth for this one: NC1(C(=O)O)CCCC1
Return: 1.01

Enquiry: In one line, give reported normalized growth of the entry NC(N)=NCCN1CCCCCCC1 .
Return: 1.02

Enquiry: State, in one line, measured normalized growth of CCC(C)C(=O)c1c(O)c(C)c2oc3c(C)c(O)c(C(=O)C(C)CC)c(O)c3c2c1O (stereo not drawn)
Return: 0.978

Enquiry: Fill in normalized growth for record CCN1C[C@@]2(COC)C3[C@@H](OC)[C@H]4[C@@H]1[C@]3(C(OC)C[C@H]2O)C1C[C@@]2(O)[C@H](OC(=O)c3ccccc3)C1[C@]4(OC(C)=O)[C@@H](O)[C@@H]2OC (stereo partly drawn)
Return: 1.03

Enquiry: Using the record for COc1ccc2c(c1)OCC(Cc1ccc(OC)c(OC(C)=O)c1)C2=O (stereo not drawn) , state its measured normalized growth.
Return: 0.987
